These measurements were taken from BindingDB's records for patent US10196390.

For each record, write down the corresponding pKi.
pKi: −log10 of the molar value.

Form: Entry = C[C@@H]1COC[C@@H](C)N1C(=O)c1ccc(Nc2cc(-c3c(F)cccc3F)nc3c2C(=O)NC3)cc1 [US10196390, Compound I-285] | System = Tyrosine-protein kinase JAK2 (Homo sapiens, UniProt O60674) | pKi = ____
> 8.00

Form: Entry = CC1CC(O)CC(C)N1c1ccc(Nc2cc(-c3c(F)cccc3F)nc3c2C(=O)NC3)nc1 (centres undefined) [US10196390, Compound I-288] | System = Tyrosine-protein kinase JAK2 (Homo sapiens, UniProt O60674) | pKi = ____
> 8.00

Form: Entry = O=C1NCc2nc(-c3c(F)cccc3F)nc(Nc3ccc(OC(F)(F)F)cc3)c21 [US10196390, Compound I-184] | System = Tyrosine-protein kinase JAK2 (Homo sapiens, UniProt O60674) | pKi = ____
< 6.00

Form: Entry = COC(=O)Cc1ncc(Nc2nc(-c3c(F)cccc3F)nc3c2C(=O)NC3)cn1 [US10196390, Compound I-166] | System = Tyrosine-protein kinase JAK2 (Homo sapiens, UniProt O60674) | pKi = ____
< 6.00

Form: Entry = Cc1ccc(Nc2nc(-c3c(F)cccc3F)nc3c2C(=O)NC3)cc1 [US10196390, Compound I-21] | System = Tyrosine-protein kinase JAK2 (Homo sapiens, UniProt O60674) | pKi = ____
< 6.00

Form: Entry = O=C1NCc2nc(-c3c(F)cccc3F)nc(Nc3ccc(C4CCCCC4)cc3)c21 [US10196390, Compound I-197] | System = Tyrosine-protein kinase JAK2 (Homo sapiens, UniProt O60674) | pKi = ____
< 6.00

Form: Entry = Cc1ccc(Nc2nc(-c3c(F)cccc3F)nc3c2C(=O)NC3)cc1F [US10196390, Compound I-292] | System = Tyrosine-protein kinase JAK2 (Homo sapiens, UniProt O60674) | pKi = ____
< 6.00

Form: Entry = O=C1NCc2nc(-c3c(F)cccc3F)cc(Nc3ccc(F)cn3)c21 [US10196390, Compound I-234] | System = Tyrosine-protein kinase JAK2 (Homo sapiens, UniProt O60674) | pKi = ____
> 8.00

Form: Entry = CC(C)N1CCN(c2ccc(Nc3cc(-c4c(F)cccc4F)nc4c3C(=O)NC4)nc2)CC1 [US10196390, Compound I-256] | System = Tyrosine-protein kinase JAK2 (Homo sapiens, UniProt O60674) | pKi = ____
> 8.00
